The measurements presented in this section are drawn from paper PMC11219744.

experiment notes: Human biomonitoring: urinary excretion of PAH metabolites (GC–MS/MS, creatinine-normalised) in firefighting instructors before and after live fire training
experimental setup: male, human, in vivo, Concentration in urine, median, sampling 6, corresponding to end of shift
result type: concentration at 6 h (ng/mL)

> print(dat)
                                   compound           result.type  observed.result
1  Oc1ccc2ccccc2c1O [DHN, 1,2-dihydroxynaphthalene]  concentration at 6 h             71.3

---

experiment notes: Human biomonitoring: urinary excretion of PAH metabolites (GC–MS/MS, creatinine-normalised) in firefighting instructors before and after live fire training
experimental setup: male, human, in vivo, Concentration in urine, range, sampling 6, corresponding to end of shift
result type: concentration at 6 h

> print(dat)
                                   molecule           result.type    observed.result
1  Oc1ccc2ccccc2c1O [DHN, 1,2-dihydroxynaphthalene]  concentration at 6 h  16.6 to 674 ng/mL

---

experiment notes: Time to peak and initial elimination half-life of the urinary biomarkers (first-order model, linear mixed effects)
Format: in vivo, human
experimental setup: male, human; initial elimination half-life after peak excretion, urine; read-out: Estimated half-life, mean (converted)
result type: half-life (h)

> print(dat)
                                   molecule  measure.unit  observed.result
1  Oc1ccc2ccccc2c1 [2-NAP, 2-hydroxynaphthalene]             h              5.2

---

experiment notes: Human biomonitoring: urinary excretion of PAH metabolites (GC–MS/MS, creatinine-normalised) in firefighting instructors before and after live fire training
experimental setup: peak: sample 5 for 1-PYR, sample 4 otherwise
result type: Median increase from baseline (sample 2) to peak excretion (fold)

> print(dat)
                                   compound  observed.result
1  Oc1ccc2ccccc2c1 [2-NAP, 2-hydroxynaphthalene]              6.6
2  Oc1ccc2ccccc2c1O [DHN, 1,2-dihydroxynaphthalene]               41
3  Oc1ccc2ccc3cccc4ccc1c2c34 [1-PYR, 1-hydroxypyrene]              7.9
4  Oc1cccc2ccccc12 [1-NAP, 1-hydroxynaphthalene]               36
